Recorded pKd, one value per entry.
- target-desc: T1, A beta 1-40 oligomer (synthetic A beta1-40, HCl form, 0.1 mg/ml in PBS, incubated at 37 degrees C for one … (UniProt P05067 672-711))
- T1 construct: domain: A beta 1-40; Non-fibrous assembly of many copies of the same peptide; also called A beta oligomer
- protocol-notes: SPR, Biacore 3000, A beta oligomer on CM5 chip, antibody as analyte
pKd: −log10 of the molar value.

{"columns": ["binder", "pKd"],
 "data": [
  ["IR-099 antibody (antibody, V domains shown, Mouse monoclonal from a hybridoma) VH: DVQLVESGGGLVQPGGSRKLSCAASGFTFSRFGMHWVRQAPEKGLEWVAYISSGRSTIYYADTVKGRFTISRDNPKNTLFLQMTSLRSEDTAMYYCARGGGNYVGAMDYWGQGTSVTVSS VL: DAVMTQTPLSLPVSLGDQASISCRSSQSLENSNGNTYLNWYLQKPGQSPQLLIYRVSNRFSGVLDRFSGSGSGTDFTLKISRVEAEDLGVYFCLQVTHVPPTFGGGTKLEIK", 8.03],
  ["IR-130 antibody (antibody, V domains shown, Mouse monoclonal from a hybridoma) VH: EVKLVESGGGLVQPGGSLKLSCATSGFTFSDYYMYWVRQTPEKRLEWVAYISNGGGSTYYPDTVKGRFTISRDNAKNTLYLQMSRLKSEDTAMYYCARGTSYGSSLHYYAMDYWGQGTSVTVSS VL: DVVMTQTPLSLPVSLGDQASISCRSSQSLVHSNGNTYLHWYLQKPGQSPKLLIYKVSNRFSGVPDRFSGSGSGTDFTLKISRVEAEDLGVYFCSQSTHVPLTFGAGTKLELK", 6.18],
  ["IR-091 antibody (antibody, V domains shown, Mouse monoclonal from a hybridoma) VH: QVTLKESGPGILKPSQTLSLTCSFSGFSLSTSGMGVGWIRQPSGKGLEWLAHIWWDDDKYYNPSLKSQLTISKDTSRNQVFLKITSVDTADTATYYCARRGLRRGDYFDYWGQGTTLTVSS VL: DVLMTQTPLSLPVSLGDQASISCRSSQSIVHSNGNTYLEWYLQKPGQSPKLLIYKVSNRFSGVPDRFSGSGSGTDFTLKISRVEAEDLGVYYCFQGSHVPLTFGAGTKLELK", 8.13],
  ["IR-103 antibody (antibody, V domains shown, Mouse monoclonal from a hybridoma) VH: DVQLVESGGGLVQPGGSRKLSCAASGFTFSSFGMHWVRQAPEKGLEWVAYISSGSSTIYYADTVKGRFTISRDNPKNTLFLQMTSLRSEDTAMYYCARSPLLRLQGLAYWGQGTLVTVSA VL: DVLMTQTPLSLPVSLGDQASISCRSSQSIVHSNGNTYLEWYLQKPGQSPKLLIYKVSNRFSGVPDRFSGSGSGTDFTLKISRVEAEDLGVYYCFQGSHVPPTFGGGTKLEIK", 7.36]
]}
